Where do the numbers come from? From patent US7563893B2.

Kindly supply the reported melting point values for the records listed here.

The examples below pair each entry with its known result.
>>> obs_value("CC(C)[C@H](N)C(=O)O[C@@H]1C[C@@H](C)Cc2nnc(-c3cccc(C(F)(F)F)c3)cc21.Cl.Cl")
"181 to 185 °C"
>>> obs_value("CC(C)[C@H](N)C(=O)O[C@@H]1C[C@H](C)Cc2nnc(-c3cccc(C(F)(F)F)c3)cc21.Cl.Cl")
"162 to 165 °C"
>>> obs_value("CC1Cc2nnc(-c3cccc(C(F)(F)F)c3)cc2C(OC(=O)[C@@H](N)C(C)C)C1.Cl.Cl (stereo partly shown) [Example 53]")
"201 to 203 °C"

# ---- query molecule ----
Provide measured melting point value, entry: CC(C)[C@H](N)C(=O)O[C@H]1C[C@H](C)Cc2nnc(-c3cccc(C(F)(F)F)c3)cc21.Cl.Cl
186 to 189 °C
